# Tested on: RXF 393 renal
# assay protocol: NCI-60 one-dose screen, 48 h (100 = growth as untreated, 0 = no growth, -100 = all killed)
# setup conditions: 10 µM unless noted
Compounds without any hit were thinned out: in the full panel of roughly 83,000, 20% have a hit.

| molecule | target | growth / % |
| --- | --- | --- |
| COc1ccc(C2=NN(c3ccc(S(N)(=O)=O)cc3)C(c3cn(-c4ccccc4)nc3-c3ccc(Cl)cc3)C2)cc1 (stereo not given) | RXF 393 renal | 97.3 |
| COc1cc(NCCCN=C(N)NC(N)=NC(C)C)c2ncccc2c1 | RXF 393 renal | 94.8 |
| COc1cc(CNC(=O)CSc2nc3ccccc3c(=O)n2Cc2cc(OC)c(OC)c(OC)c2)cc(OC)c1OC | RXF 393 renal | 97.4 |
| CCC1CCc2nc3sc(C(=O)Nc4ccccc4C)c(N)c3cc2C1 (stereo not given) | RXF 393 renal | 26.1 |
| COc1cccc(C2CC(=O)Nc3c2c(C)nn3-c2nc3ccccc3[nH]2)c1OC (stereo not given) | RXF 393 renal | 64.2 |
